For each of the compounds below, state its Activity.
organism: Homo sapiens; assay: Hallucinogenic activity i.e; ratio of effective dose of mescaline to the effective dose in human; type: functional
Give bare numbers, in MU.

# example entries with known answers
{"columns": ["COMPOUND", "Activity / MU"],
 "data": [
  ["COc1cc(SC(C)C)c(OC)cc1CC(C)N (configuration not stated)", 40],
  ["CCCSc1c(OC)cc(CCN)cc1OC", 16],
  ["COc1cc(CCN)cc(OC)c1OC [MESCALINE]", 1]
]}

Please look at the items below and tell me Activity for each one, in order.
1. CCCCOc1c(OC)cc(CCN)cc1OC
2. COc1cc(CC(C)N)cc(OC)c1OC (configuration not stated)

*A*
[2, 2]

Form: compound = COc1cc(CCN)c(OC)cc1C ; Activity = 20

###

organism: Homo sapiens; assay: Hallucinogenic activity i.e; ratio of effective dose of mescaline to the effective dose in human; type: functional
Each record's Activity is compared with bottom range (below 3 MU), center range (3 MU to below 10 MU), top range (10 MU or more) to give its class.

{"columns": ["COMPOUND", "CATEGORY"],
 "data": [
  ["COc1cc(CC(C)N)cc2c1OCO2 (stereo not given)", "bottom range"]
]}

*Q* Could you place COc1ccc(CCN)cc1OC in its proper category? Many thanks.
*A* bottom range

*Q* Could you place CCOc1cc(OC)c(CC(C)N)cc1OC (stereo not given) in its proper category? Many thanks.
*A* top range

*Q* Could you place COc1ccc(CCN)c(OC)c1OC in its proper category? Many thanks.
*A* bottom range

*Q* Could you place CCOc1cc(CCN)cc(OC)c1OC in its proper category? Many thanks.
*A* bottom range

*Q* Could you place COc1cc(OC)c(OC)cc1CCN in its proper category? Many thanks.
*A* bottom range

*Q* Could you place CCOc1cc(CCN)cc(OCC)c1OC in its proper category? Many thanks.
*A* bottom range

*Q* Could you place COc1cc(OC)c(OC)cc1CC(C)N (stereo not given) in its proper category? Many thanks.
*A* top range

*Q* Could you place CCSc1cc(CCN)cc(OC)c1OC in its proper category? Many thanks.
*A* center range

###

species on record: Homo sapiens; experiment: Log value of hallucinogenic activity was determined; type: functional
RECORDED ENDPOINT: Log activity
One number for each entry.

# example entries with known answers
{"columns": ["COMPOUND", "RECORDED ENDPOINT", "VALUE OBSERVED"],
 "data": [
  ["CCOc1cc(OC)c(CC(C)N)cc1OC (stereo not drawn)", "Log activity", 1.301],
  ["COc1ccc(CC(C)N)c(OC)c1OC (stereo not drawn)", "Log activity", 0.301]
]}

Please look at the items below and tell me Log activity for each one, in order.
1. COc1ccc(OC)c(CC(C)N)c1 (stereo not drawn)
2. CCSc1cc(CCN)cc(OC)c1OC

*A*
1: 0.903; 2: 0.778

Please look at the items below and tell me Log activity for each one, in order.
1. COc1ccc(CCN)c(OC)c1OC
2. COc1cc(CC(C)N)c(OC)c(OC)c1OC (stereo not drawn)
3. CCOc1cc(CCN)cc(OC)c1SCC
4. COc1cc(SC(C)C)c(OC)cc1CC(C)N (stereo not drawn)

*A*
[-0.301, 0.778, 0.602, 1.602]

###

organism: Homo sapiens; assay: Hallucinogenic activity i.e; ratio of effective dose of mescaline to the effective dose in human; format: functional
Activity of 10 MU or higher: TRUE. Under 10 MU: FALSE.

// below: answered molecules
{"columns": ["MOLECULE", "CATEGORY"],
 "data": [
  ["CCOc1cc(CCN)cc(OCC)c1SC", "FALSE"],
  ["CCOc1cc(CCN)cc(OCC)c1OCC", "FALSE"],
  ["COc1ccc(CC(C)N)c(OC)c1 (stereo not drawn)", "FALSE"],
  ["COc1cc(CCN)cc(OC)c1SC", "TRUE"],
  ["CCc1cc(OC)c(CCN)cc1OC", "TRUE"]
]}

*Q* For this molecule, is measured Activity 10 MU or higher? CCCOc1cc(CCN)cc(OC)c1OC
*A* FALSE

*Q* For this molecule, is measured Activity 10 MU or higher? CCOc1cc(CCN)cc(OC)c1SCC
*A* FALSE

###

species on record: Homo sapiens; assay: Hallucinogenic activity i.e; ratio of effective dose of mescaline to the effective dose in human; assay type: functional
Each record's Activity is compared with one (below 4 MU), two (4 MU to below 8 MU), three (8 MU or more) to give its class.

{"columns": ["COMPOUND", "CATEGORY"],
 "data": [
  ["CCOc1c(OC)cc(CCN)cc1SCC", "one"],
  ["CCCOc1cc(OC)c(CC(C)N)cc1OC (configuration not stated)", "three"],
  ["NCCc1ccc2c(c1)OCO2", "one"],
  ["CCCc1cc(OC)c(CC(C)N)cc1OC (configuration not stated)", "three"],
  ["COc1cc(CC(C)N)cc(C)c1OCc1ccccc1 (configuration not stated)", "one"],
  ["CCSc1c(OC)cc(CCN)cc1OC", "three"],
  ["COc1cc(CC(C)N)c(OC)c(OC)c1OC (configuration not stated)", "two"],
  ["COc1ccc(CCN)cc1", "one"]
]}

Consider the additional compound presented here.
*Q* Could you place CC(N)Cc1ccc2c(c1)OCO2 (configuration not stated) in its proper category? Many thanks.
*A* one

###

For each of the compounds below, state its Log activity.
organism: Homo sapiens; assay: Log value of hallucinogenic activity was determined; type: functional
One number for each entry.

# example entries with known answers
{"columns": ["COMPOUND", "Log activity"],
 "data": [
  ["CCOc1cc(CCN)cc(OC)c1OC", 0],
  ["COc1cc(OC)c(OC)cc1CC(C)N (centres undefined)", 1.301],
  ["COc1cc(CCN)cc(OC)c1SC", 1.079],
  ["COc1ccc(CC(C)N)c2c1OCO2 (centres undefined)", 0.477],
  ["CCOc1c(OC)cc(CCN)cc1SC", 0.778],
  ["NCCc1ccc2c(c1)OCO2", 0],
  ["CCCOc1cc(CCN)cc(OC)c1OC", -0.301],
  ["CCOc1cc(CCN)cc(OC)c1OCC", 0.176],
  ["CCCSc1c(OC)cc(CCN)cc1OC", 1.204],
  ["COc1cc(CC(C)N)c(OC)cc1C (centres undefined)", 1.903]
]}

Please look at the items below and tell me Log activity for each one, in order.
1. CC(N)Cc1ccc2c(c1)OCO2 (centres undefined)
2. COc1cc(CC(C)N)c(OC)cc1CC(C)C (centres undefined)
3. CCCCOc1c(OC)cc(CCN)cc1OC
4. COc1cc(OC)c(CC(C)N)c(OC)c1 (centres undefined)
5. CCCc1cc(OC)c(CC(C)N)cc1OC (centres undefined)

*A*
0.477
1.301
0.301
1
1.903

###

organism: Homo sapiens; test: Hallucinogenic activity i.e; ratio of effective dose of mescaline to the effective dose in human; assay type: functional
RECORDED ENDPOINT: log10 of Activity (log10 of the value in MU)
Reminder: these figures are log10 of reported Activity, in MU before transformation.

{"columns": ["COMPOUND", "VALUE OBSERVED"],
 "data": [
  ["COc1cc(SC)c(OC)cc1CC(C)N (stereo not given)", 1.60],
  ["CCOc1cc(CCN)cc(OC)c1OCC", 0.18],
  ["COc1cc(CC(C)N)c(OC)c2c1OCO2 (stereo not given)", 1.08],
  ["COc1c(CC(C)N)cc2c(c1OC)OCO2 (stereo not given)", 0.70],
  ["COc1ccc(CC(C)N)cc1OC (stereo not given)", -0.30],
  ["CCCCc1cc(OC)c(CC(C)N)cc1OC (stereo not given)", 1.60],
  ["COc1cc(CC(C)N)c(OC)cc1CC(C)C (stereo not given)", 1.30],
  ["CCOc1cc(CCN)cc(OC)c1SC", 0.60],
  ["COc1cc(CCN)cc(SC)c1OC", 0.78],
  ["CCCCSc1c(OC)cc(CCN)cc1OC", 0.48]
]}

Please look at the items below and tell me log10 of Activity for each one, in order.
1. CCc1cc(OC)c(CC(C)N)cc1OC (stereo not given)
2. COc1cc2c(cc1CC(C)N)OCO2 (stereo not given)

*A*
2.00
1.00

###

species: Homo sapiens; test: Hallucinogenic activity i.e; ratio of effective dose of mescaline to the effective dose in human; assay type: functional
// classify: if (Activity < 10 MU) yes (1) else no (0)

// below: answered compounds
{"columns": ["COMPOUND", "CATEGORY"],
 "data": [
  ["COc1ccc(CC(C)N)c2c1OCO2 (stereo unspecified)", "yes (1)"],
  ["COc1ccc(CC(C)N)c(OC)c1OC (stereo unspecified)", "yes (1)"],
  ["CCOc1c(OC)cc(CCN)cc1OC", "yes (1)"]
]}

Consider the additional compound presented here.
*Q* Activity strictly < 10 MU for this compound? COc1cc(CC(C)N)c(OC)cc1C (stereo unspecified) [DOM]
*A* no (0)
